Tested on: HS 578T breast
PROTOCOL TEXT: NCI-60 one-dose screen, 48 h (100 = growth as untreated, 0 = no growth, -100 = all killed)
DETAILS: 10 µM unless noted
About 83,000 compounds went through this panel and 20% of them were active in at least one assay; those are over-represented in the sample as a whole.
Label Fulfilled when growth is strictly below 90%; at or above that, label Not fulfilled.

MOLECULE: COc1ccc(NC(=O)c2sc3c(=O)[nH]c(C(F)(F)F)nc3c2C)cc1
SYSTEM TESTED: HS 578T breast
ASSIGNED CATEGORY: Not fulfilled

MOLECULE: CCN1C(=O)N(CC)C2C1NC(=O)N2/N=C/C=C/c1ccccc1 (stereo not given)
SYSTEM TESTED: HS 578T breast
ASSIGNED CATEGORY: Fulfilled

MOLECULE: O=C(Nc1cccc(C2=NCCN2)c1)c1ccc(N=Nc2ccc(C(=O)Nc3cccc(C4=NCCN4)c3)cc2)cc1
SYSTEM TESTED: HS 578T breast
ASSIGNED CATEGORY: Fulfilled

MOLECULE: CC(=O)OC[C@H]1O[C@@H](n2c(=O)cc(N)[nH]c2=O)C(OC(C)=O)[C@@H]1OC(C)=O (stereo not given in full)
SYSTEM TESTED: HS 578T breast
ASSIGNED CATEGORY: Not fulfilled
